# Test system: Trypanosoma cruzi
# Test Protocol: Antitrypanosomal activity against Trypanosoma cruzi Y strain amastigotes infected in human U2OS cells assessed as parasite growth inhibition after 72 hrs post infection by DRAQ5 staining based analysis
# Format: functional, organism-based
Property: pEC50
# log scale: pEC50 equals minus log10 of the concentration in mol/L

Q: Lab request: please report pEC50 under test system Trypanosoma cruzi for N#CC1(NC(=O)[C@@H](Cc2c[nH]c3ccccc23)N[C@@H](c2ccccc2)C(F)(F)F)CC1
Ans: 4.59

Q: # query: pEC50 | item N#CC1(NC(=O)[C@H](Cc2c[nH]c3ccccc23)N[C@H](c2ccccc2)C(F)(F)F)CC1 | system: Trypanosoma cruzi
Ans: 4.94
